Source listed as patent US20250092017A1.

Molecular target: Ba/F3-FL-EGFR-L858R-T790M-C797S (Homo sapiens, UniProt P00533, T790M/C797S/L858R, cells depend on it)
Sequence (P00533 whole entry T790M/C797S/L858R): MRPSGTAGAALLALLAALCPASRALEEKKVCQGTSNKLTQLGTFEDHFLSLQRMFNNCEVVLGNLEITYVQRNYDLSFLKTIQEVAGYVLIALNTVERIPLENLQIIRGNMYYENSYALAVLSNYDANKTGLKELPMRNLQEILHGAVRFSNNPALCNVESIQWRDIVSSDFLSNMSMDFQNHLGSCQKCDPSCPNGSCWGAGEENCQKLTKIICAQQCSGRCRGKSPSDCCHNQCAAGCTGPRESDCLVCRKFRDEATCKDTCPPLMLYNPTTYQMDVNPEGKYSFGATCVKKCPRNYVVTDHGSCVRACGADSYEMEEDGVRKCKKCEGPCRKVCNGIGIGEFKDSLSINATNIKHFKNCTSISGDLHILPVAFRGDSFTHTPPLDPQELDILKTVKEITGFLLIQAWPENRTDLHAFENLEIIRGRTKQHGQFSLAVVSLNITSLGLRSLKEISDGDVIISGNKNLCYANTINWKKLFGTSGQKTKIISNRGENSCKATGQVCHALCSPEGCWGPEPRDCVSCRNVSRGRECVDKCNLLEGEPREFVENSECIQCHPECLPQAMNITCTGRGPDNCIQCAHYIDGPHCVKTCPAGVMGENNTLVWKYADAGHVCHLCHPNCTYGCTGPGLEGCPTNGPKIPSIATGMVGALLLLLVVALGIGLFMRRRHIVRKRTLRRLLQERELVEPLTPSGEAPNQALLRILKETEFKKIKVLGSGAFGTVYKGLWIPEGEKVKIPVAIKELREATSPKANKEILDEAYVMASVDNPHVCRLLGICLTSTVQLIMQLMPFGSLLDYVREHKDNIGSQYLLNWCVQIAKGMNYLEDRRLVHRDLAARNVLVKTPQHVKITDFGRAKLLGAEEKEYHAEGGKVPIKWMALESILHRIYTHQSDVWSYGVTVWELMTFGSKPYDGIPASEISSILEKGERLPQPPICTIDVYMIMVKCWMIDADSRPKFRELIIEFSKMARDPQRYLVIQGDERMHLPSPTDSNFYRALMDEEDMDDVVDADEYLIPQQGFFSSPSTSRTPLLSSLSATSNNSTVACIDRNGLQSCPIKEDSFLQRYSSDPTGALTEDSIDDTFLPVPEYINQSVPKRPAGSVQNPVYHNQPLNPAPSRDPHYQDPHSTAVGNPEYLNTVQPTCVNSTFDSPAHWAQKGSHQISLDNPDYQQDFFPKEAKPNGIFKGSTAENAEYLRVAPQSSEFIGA
Experiment: CellTiter-Glo proliferation, Ba/F3-FL-EGFR-L858R-T790M-C797S
Type: cell-based
Details: 72 hours, read-out: Ba/F3-FL-EGFR-L858R-T790M-C797S IC50/nM
Description: Promega CellTiter-Glo reagent was used to detect the effects of small molecule inhibitors on the proliferation of five Ba/F3 cell lines (Ba/F3-FL-EGFR, Ba/F3-FL-EGFR-L858R, Ba/F3-FL-EGFR-L858R-T790M-C797S, Ba/F3-TEL-EGFR-L858R-C797S and Ba/F3-FL-EGFR-del19-C797S). The cell lines were cultured in an incubator at 37° C. and 5% CO2. Cells were passaged regularly and cells in the logarithmic phase were used for plating. […] Cell viability was detected by CellTiter-Glo luminescence assay. […]
Response field label takes 1 when GI50 is strictly below 40 nM and -1 in all other cases.

{"COMPOUND": "CCCS(=O)(=O)n1cc(-c2nccc(Nc3cc4c(C(C)C)ccc(N5CC(CS(C)(=O)=O)C5)c4cn3)n2)cn1 [Compound H6]", "DISCRETE_LABEL": -1}

(Q) Problem: For the compound CO[C@@H]1CCN(c2nccc(Nc3cc4c(C(C)C)ccc(N5C[C@H](N(C)S(C)(=O)=O)[C@H]5C)c4cn3)n2)C[C@@H]1F [Compound P40a] , is GI50 under 40 nM?
(A) 1

(Q) Problem: For the compound COC1CCN(c2nccc(Nc3cc4c(cn3)c(N3CC(CS(C)(=O)=O)C3)cc(=O)n4C(C)C)n2)CC1F (stereo not shown) [Compound P24] , is GI50 under 40 nM?
(A) -1

(Q) Problem: For the compound CC(C)c1ccc(N2CC(NS(C)(=O)=O)C2)c2cnc(Nc3ccnc(N4CCC(O)C(F)C4)n3)cc12 (stereo not shown) [Compound P21] , is GI50 under 40 nM?
(A) 1

(Q) Problem: For the compound CC(C)c1ccc(N2CC(NS(C)(=O)=O)C2)c2cnc(Nc3ccnc(N4CCC(O)C(C)(F)C4)n3)cc12 (stereo not shown) [Compound P45] , is GI50 under 40 nM?
(A) 1

(Q) Problem: For the compound CC(C)c1ccc(N2C[C@H](CS(C)(=O)=O)[C@H]2C)c2cnc(Nc3ccnc(-c4cnn(S(=O)(=O)CCOC5CC5)c4)n3)cc12 [Compound H31] , is GI50 under 40 nM?
(A) -1

(Q) Problem: For the compound CC(C)c1ccc(N2CC(NS(C)(=O)=O)C2)c2cnc(Nc3ccnc(N4CCC(O)C(C)(F)C4)n3)cc12 (stereo not shown) [Compound P46] , is GI50 under 40 nM?
(A) -1

* * *

Hi there, I'd appreciate the recorded IC50 for every entry that follows.
Biological target: EGFR (wild-type) (Homo sapiens)
Sequence (P00533 25-1210): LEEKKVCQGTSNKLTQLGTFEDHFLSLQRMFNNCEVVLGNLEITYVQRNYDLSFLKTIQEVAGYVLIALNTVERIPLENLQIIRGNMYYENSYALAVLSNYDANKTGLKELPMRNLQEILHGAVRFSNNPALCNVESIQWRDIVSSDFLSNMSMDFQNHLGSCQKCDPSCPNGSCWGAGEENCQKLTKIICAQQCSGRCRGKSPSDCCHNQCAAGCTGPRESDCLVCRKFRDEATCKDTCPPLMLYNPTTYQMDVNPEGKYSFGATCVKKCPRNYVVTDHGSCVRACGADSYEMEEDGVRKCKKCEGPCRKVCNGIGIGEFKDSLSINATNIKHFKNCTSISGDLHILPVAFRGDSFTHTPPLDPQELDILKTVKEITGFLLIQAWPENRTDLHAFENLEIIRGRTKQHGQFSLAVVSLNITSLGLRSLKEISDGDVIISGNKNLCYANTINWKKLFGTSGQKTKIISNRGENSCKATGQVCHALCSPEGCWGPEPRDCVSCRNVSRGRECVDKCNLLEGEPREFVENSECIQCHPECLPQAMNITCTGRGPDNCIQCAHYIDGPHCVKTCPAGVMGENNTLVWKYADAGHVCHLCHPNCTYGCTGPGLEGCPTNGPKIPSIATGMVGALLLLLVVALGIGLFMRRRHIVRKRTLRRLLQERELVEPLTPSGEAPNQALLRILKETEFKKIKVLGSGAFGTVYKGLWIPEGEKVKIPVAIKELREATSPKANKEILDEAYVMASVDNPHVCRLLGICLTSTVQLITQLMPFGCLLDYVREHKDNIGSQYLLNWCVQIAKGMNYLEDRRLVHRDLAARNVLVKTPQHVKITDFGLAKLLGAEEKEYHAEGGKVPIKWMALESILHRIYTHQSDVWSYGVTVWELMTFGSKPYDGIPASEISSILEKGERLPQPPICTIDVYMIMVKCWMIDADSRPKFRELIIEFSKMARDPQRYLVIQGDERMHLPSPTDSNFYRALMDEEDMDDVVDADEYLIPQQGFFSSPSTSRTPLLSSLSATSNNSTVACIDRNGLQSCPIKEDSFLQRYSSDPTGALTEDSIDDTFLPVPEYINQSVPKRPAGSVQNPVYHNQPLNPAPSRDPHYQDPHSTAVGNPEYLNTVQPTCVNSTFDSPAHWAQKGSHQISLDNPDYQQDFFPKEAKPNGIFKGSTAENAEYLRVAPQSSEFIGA
Experiment: MSA (Mobility Shift Assay) kinase activity, EGFR wild type
Type: biochemical
Conditions: read-out: EGFR wt/ IC50/nM

Example results:
{"MOLECULE": "CNC(=O)CN1CC(c2ccc(C(C)C)c3cc(Nc4ccnc(N5CCC(O)C(F)C5)n4)ncc23)C1 (stereo not shown)", "IC50": "> 100 nM"}
{"MOLECULE": "CC(C)c1ccc(N2CC(CS(C)(=O)=O)C2)c2cnc(Nc3ccnc(N4CCC(O)C(F)C4)n3)cc12 (stereo not shown) [Control A, reference compound]", "IC50": "30.2 nM"}
{"MOLECULE": "CC(C)c1ccc(N2C[C@@H](NS(C)(=O)=O)[C@@H]2C)c2cnc(Nc3ccnc(N4CCC(O)C(F)C4)n3)cc12 (stereo partly shown)", "IC50": "> 100 nM"}

Okay, next one:
(Q) // returns reported IC50 for input CC(C)c1cc(C(F)(F)F)c(N2CC3(CC(CS(C)(=O)=O)C3)C2)c2cnc(Nc3ccnc(N4CCC(O)C(F)C4)n3)cc12 (stereo not shown)
(A) > 100 nM
